# assayed system: M. tuberculosis InhA (Mycobacterium tuberculosis, UniProt P9WGR1)
# Sequence (P9WGR1 whole entry, looked up): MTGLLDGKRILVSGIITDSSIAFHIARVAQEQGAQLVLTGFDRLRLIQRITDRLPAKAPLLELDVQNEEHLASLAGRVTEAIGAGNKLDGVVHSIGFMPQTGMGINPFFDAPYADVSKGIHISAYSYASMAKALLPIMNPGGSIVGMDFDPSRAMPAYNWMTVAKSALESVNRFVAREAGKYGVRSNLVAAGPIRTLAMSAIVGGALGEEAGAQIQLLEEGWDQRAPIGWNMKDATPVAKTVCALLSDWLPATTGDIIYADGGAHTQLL
# experiment notes: biochemical
# Assay type: binding
# study conditions: cofactor: None
recorded endpoint: Kd (nM)

[[record]]
compound = "CCS(=O)(=O)N1N=Cc2ccc(Oc3ccc(C(F)(F)F)cc3/C=N/O)cc2B1O [AN12855]"
measured = 77


====

# experiment notes: in vivo
# study conditions: female, C57BL/6, mouse, po, 10 mg/kg, AUClast, C57Bl/6 mice, oral 10 mg/kg QD-4 days, plasma
recorded endpoint: AUC(0-t) (ng·h/mL)

[[record]]
item_smiles = "CCS(=O)(=O)N1N=Cc2ccc(Oc3ccc(C(F)(F)F)cc3/C=N/O)cc2B1O"
measured = 17600


====

# experiment notes: in vivo
# study conditions: female, C57BL/6, mouse, po, 10 mg/kg
recorded endpoint: half-life (h)

[[record]]
item_smiles = "CCS(=O)(=O)N1N=Cc2ccc(Oc3ccc(C(F)(F)F)cc3/C=N/O)cc2B1O"
measured = 2.5


====

# experiment notes: in vivo
# study conditions: female, CD-1, mouse, iv, 5 mg/kg
recorded endpoint: half-life (h)

[[record]]
item_smiles = "CCS(=O)(=O)N1N=Cc2ccc(Oc3ccc(C(F)(F)F)cc3/C=N/O)cc2B1O"
measure_unit = "h"
measured = 3.46


====

# experiment notes: in vivo
# study conditions: female, CD-1, mouse
recorded endpoint: half-life (h)

[[record]]
item_smiles = "CCS(=O)(=O)N1N=Cc2ccc(Oc3ccc(C(F)(F)F)cc3/C=N/O)cc2B1O"
measured = 3.5


====

# experiment notes: in vivo
# study conditions: female, BALB/c, mouse, po, 50 mg/kg
recorded endpoint: AUC(0-inf)

[[record]]
compound = "CCS(=O)(=O)N1N=Cc2ccc(Oc3ccc(C(F)(F)F)cc3/C=N/O)cc2B1O [AN12855]"
measured = "192 µg·h/mL"


====

# experiment notes: in vivo
# study conditions: female, CD-1, mouse, po, 10 mg/kg
recorded endpoint: half-life (h)

[[record]]
compound = "CCS(=O)(=O)N1N=Cc2ccc(Oc3ccc(C(F)(F)F)cc3/C=N/O)cc2B1O [AN12855]"
measured = 3.27


====

# experiment notes: in vivo
# study conditions: female, C57BL/6, mouse, po, 10 mg/kg
recorded endpoint: AUC(0-inf)

[[record]]
item_smiles = "CCS(=O)(=O)N1N=Cc2ccc(Oc3ccc(C(F)(F)F)cc3/C=N/O)cc2B1O"
recorded_endpoint = "AUC(0-inf)"
measured = "19700 ng·h/mL"


====

# experiment notes: in vivo
# study conditions: female, BALB/c, mouse, po, 50 mg/kg
recorded endpoint: half-life (h)

[[record]]
item_smiles = "CCS(=O)(=O)N1N=Cc2ccc(Oc3ccc(C(F)(F)F)cc3/C=N/O)cc2B1O"
recorded_endpoint = "half-life"
measured = 2.4


====

# experiment notes: in vivo
# study conditions: female, BALB/c, mouse, po, 50 mg/kg, AUClast, BALB/c (infected) mice, oral 50 mg/kg QD-3 wk, plasma
recorded endpoint: AUC(0-t) (µg·h/mL)

[[record]]
compound = "CCS(=O)(=O)N1N=Cc2ccc(Oc3ccc(C(F)(F)F)cc3/C=N/O)cc2B1O [AN12855]"
measure_unit = "µg·h/mL"
measured = 192


====

# experiment notes: in vivo
# study conditions: female, CD-1, mouse, po, 10 mg/kg, Tmax, CD-1 mice, oral 10 mg/kg, single dose, lung
recorded endpoint: Tmax (h)

[[record]]
compound = "CCS(=O)(=O)N1N=Cc2ccc(Oc3ccc(C(F)(F)F)cc3/C=N/O)cc2B1O [AN12855]"
measured = 4


====

# experiment notes: in vivo
# study conditions: female, BALB/c, mouse, po, 10 mg/kg
recorded endpoint: AUC(0-inf) (ng·h/mL)

[[record]]
molecule = "CCS(=O)(=O)N1N=Cc2ccc(Oc3ccc(C(F)(F)F)cc3/C=N/O)cc2B1O [AN12855]"
measured = 29000


====

# experiment notes: in vivo
# study conditions: female, C57BL/6, mouse, po, 50 mg/kg, Tmax, C57Bl/6 mice, oral 50 mg/kg QD-4 days, lung
recorded endpoint: Tmax (h)

[[record]]
molecule = "CCS(=O)(=O)N1N=Cc2ccc(Oc3ccc(C(F)(F)F)cc3/C=N/O)cc2B1O [AN12855]"
measured = 5


====

# experiment notes: in vivo
# study conditions: female, CD-1, mouse, po, 10 mg/kg
recorded endpoint: AUC(0-inf) (µg·h/mL)

[[record]]
item_smiles = "CCS(=O)(=O)N1N=Cc2ccc(Oc3ccc(C(F)(F)F)cc3/C=N/O)cc2B1O"
measured = 15.5


====

# experiment notes: in vivo
# study conditions: female, C57BL/6, mouse, po, 50 mg/kg, Cmax, C57Bl/6 mice, oral 50 mg/kg QD-4 days, lung
recorded endpoint: Cmax

[[record]]
item_smiles = "CCS(=O)(=O)N1N=Cc2ccc(Oc3ccc(C(F)(F)F)cc3/C=N/O)cc2B1O"
recorded_endpoint = "Cmax"
measured = "3500 ng/mL"


====

# experiment notes: in vivo
# study conditions: female, BALB/c, mouse, po, 50 mg/kg, Cmax, BALB/c (infected) mice, oral 50 mg/kg QD-3 wk, plasma
recorded endpoint: Cmax (µg/mL)

[[record]]
molecule = "CCS(=O)(=O)N1N=Cc2ccc(Oc3ccc(C(F)(F)F)cc3/C=N/O)cc2B1O [AN12855]"
recorded_endpoint = "Cmax"
measured = 61.6


====

# experiment notes: in vivo
# study conditions: female, C57BL/6, mouse, po, 25 mg/kg, Cmax, C57Bl/6 mice, oral 25 mg/kg QD-4 days, lung
recorded endpoint: Cmax

[[record]]
item_smiles = "CCS(=O)(=O)N1N=Cc2ccc(Oc3ccc(C(F)(F)F)cc3/C=N/O)cc2B1O"
recorded_endpoint = "Cmax"
measured = "1900 ng/mL"


====

# experiment notes: in vivo
# study conditions: female, C57BL/6, mouse, po, 25 mg/kg, Tmax, C57Bl/6 mice, oral 25 mg/kg QD-4 days, lung
recorded endpoint: Tmax (h)

[[record]]
item_smiles = "CCS(=O)(=O)N1N=Cc2ccc(Oc3ccc(C(F)(F)F)cc3/C=N/O)cc2B1O"
recorded_endpoint = "Tmax"
measured = 5


====

# experiment notes: in vivo
# study conditions: female, BALB/c, mouse, po, 50 mg/kg, Tmax, BALB/c (infected) mice, oral 50 mg/kg QD-3 wk, plasma
recorded endpoint: Tmax (min)

[[record]]
item_smiles = "CCS(=O)(=O)N1N=Cc2ccc(Oc3ccc(C(F)(F)F)cc3/C=N/O)cc2B1O"
measured = 30


====

# experiment notes: in vivo
# study conditions: female, CD-1, mouse, po, 10 mg/kg, Cmax, CD-1 mice, oral 10 mg/kg, single dose, lung
recorded endpoint: Cmax (ng/mL)

[[record]]
molecule = "CCS(=O)(=O)N1N=Cc2ccc(Oc3ccc(C(F)(F)F)cc3/C=N/O)cc2B1O [AN12855]"
measure_unit = "ng/mL"
measured = 1020


====

# experiment notes: in vivo
# study conditions: female, C57BL/6, mouse, po, 25 mg/kg, Ratio (Lung / Plasma) @ 5 hr, C57Bl/6 mice, oral 25 mg/kg QD-4 days
recorded endpoint: Kp

[[record]]
item_smiles = "CCS(=O)(=O)N1N=Cc2ccc(Oc3ccc(C(F)(F)F)cc3/C=N/O)cc2B1O"
measured = 0.48


====

Hi! I'm sharing some IC50 results obtained with UniProt P9WGR1.
recorded endpoint: IC50 (µM)

[[record]]
item_smiles = "N#Cc1ccc(Oc2ccc3c(c2)COB3O)c(/C=N/O)c1"
assayed_system = "UniProt P9WGR1"
measured = 12

[[record]]
item_smiles = "OB1OCc2ccc(Oc3ccc(C(F)(F)F)cc3)cc21"
assayed_system = "UniProt P9WGR1"
measured = 44

[[record]]
item_smiles = "CS(=O)(=O)N1N=Cc2ccc(Oc3ccc(C(F)(F)F)cc3/C=N/O)cc2B1O"
assayed_system = "UniProt P9WGR1"
measured = 0.4

[[record]]
item_smiles = "CS(=O)(=O)N1N=Cc2ccc(Oc3ccc(C#N)cc3)cc2B1O"
assayed_system = "UniProt P9WGR1"
measured = 79

[[record]]
item_smiles = "CCS(=O)(=O)N1N=Cc2ccc(Oc3ccc(C(F)(F)F)cc3/C=N/O)cc2B1O"
assayed_system = "UniProt P9WGR1"
measured = 0.03

[[record]]
item_smiles = "CCS(=O)(=O)N1N=Cc2cc(Oc3ccc(C(F)(F)F)cc3/C=N/O)ccc2B1O"
assayed_system = "UniProt P9WGR1"
measured = 2.3


====

# experiment notes: in vivo
# study conditions: female, CD-1, mouse, po, 10 mg/kg
recorded endpoint: bioavailability

[[record]]
item_smiles = "CCS(=O)(=O)N1N=Cc2ccc(Oc3ccc(C(F)(F)F)cc3/C=N/O)cc2B1O"
measured = "53%"


====

# experiment notes: in vivo
# study conditions: female, C57BL/6, mouse, po, 50 mg/kg
recorded endpoint: half-life

[[record]]
molecule = "CCS(=O)(=O)N1N=Cc2ccc(Oc3ccc(C(F)(F)F)cc3/C=N/O)cc2B1O [AN12855]"
measured = "3.76 h"

